Each record here notes measured Dmax.
Target: BTK (Homo sapiens, UniProt Q06187)
Sequence (Q06187 whole entry): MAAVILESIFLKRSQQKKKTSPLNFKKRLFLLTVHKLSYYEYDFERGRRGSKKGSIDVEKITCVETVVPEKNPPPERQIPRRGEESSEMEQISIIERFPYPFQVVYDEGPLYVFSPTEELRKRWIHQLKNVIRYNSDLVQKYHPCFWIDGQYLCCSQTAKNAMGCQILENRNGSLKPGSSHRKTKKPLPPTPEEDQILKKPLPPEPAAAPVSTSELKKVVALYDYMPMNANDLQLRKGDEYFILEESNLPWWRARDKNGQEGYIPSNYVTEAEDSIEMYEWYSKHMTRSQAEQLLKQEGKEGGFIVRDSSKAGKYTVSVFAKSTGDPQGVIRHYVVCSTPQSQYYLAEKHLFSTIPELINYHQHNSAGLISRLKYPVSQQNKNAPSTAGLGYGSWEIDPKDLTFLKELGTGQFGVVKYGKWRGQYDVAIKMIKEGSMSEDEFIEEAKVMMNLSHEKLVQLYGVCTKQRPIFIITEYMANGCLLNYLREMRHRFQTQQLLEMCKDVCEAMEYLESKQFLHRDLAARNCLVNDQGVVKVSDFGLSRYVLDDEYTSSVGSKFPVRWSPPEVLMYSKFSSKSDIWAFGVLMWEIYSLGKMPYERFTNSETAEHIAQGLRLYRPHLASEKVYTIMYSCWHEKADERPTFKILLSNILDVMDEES
Test: Degradation of BTK protein in Namalwa cells (Western blot; DC50, Dmax)

# count of solved cases: 2
1) NC(=O)c1c(-c2ccc(Oc3ccccc3)cc2)nn2c1NCCC2C1CCN(CC2CCN(C(=O)N3CCN(C4CCN(c5ccc6c(c5)CN(C5CCC(=O)NC5=O)C6=O)CC4)CC3)CC2)CC1 (stereo not drawn) = > 90%
2) Nc1ncnc2c1c(-c1ccc(Oc3ccccc3)cc1)nn2C1CCN(C2CCN(C(=O)N3CCC(N4CCN(c5ccc6c(c5)C(=O)N(C5CCC(=O)NC5=O)C6=O)CC4)CC3)CC2)CC1 (stereo not drawn) = > 90%

# context switch: different compound, same Dmax
Using the record for NC(=O)c1c(-c2ccc(Oc3ccccc3)cc2)nn2c1NCCC2C1CCN(C2CCN(C(=O)N3CCC(C4CCN(c5ccc6c(c5)C(=O)N(C5CCC(=O)NC5=O)C6=O)CC4)CC3)CC2)CC1 (stereo not drawn) , state its measured Dmax. > 90%
